test: qHTS Assay for Lipid Storage Modulators (AID 1519); settings: Drosophila S3 cells, BODIPY lipid droplet/cell ratio, laser cytometry; at 57.5 µM (top of the series); cells loaded with oleic acid; further: on the % scale 0 is the no-effect control and ±100 the full control effect
Records with an inconclusive call do not appear.
QUANTITY_NAME: activity change, negative = inhibition (%)
Kindly answer with a numeric value in %, unit omitted.

Task: Give me measured activity change, negative = inhibition, please, for this compound: N#Cc1ccccc1-c1ccc2ncnc(N3CCNCC3)c2c1
Result: 7.44

Task: Give me measured activity change, negative = inhibition, please, for this compound: Cc1nc2cnc(N(C)C)nc2n(Cc2ccc(F)cc2)c1=O
Result: 5.88

Task: Give me measured activity change, negative = inhibition, please, for this compound: COc1ccccc1CN1CCCC2(CCN(S(C)(=O)=O)CC2)C1
Result: 2.11

Task: Give me measured activity change, negative = inhibition, please, for this compound: COc1ccc(-c2nc3cnc(Nc4cccc(OC)c4)nc3n(C3CC3)c2=O)cc1
Result: 0.287

Task: Give me measured activity change, negative = inhibition, please, for this compound: COc1ncc2ncc(=O)n(Cc3cccs3)c2n1
Result: 4.1

Task: Give me measured activity change, negative = inhibition, please, for this compound: CN(C)c1ncnc2ccc(-c3ccoc3)cc12
Result: 1.41

Task: Give me measured activity change, negative = inhibition, please, for this compound: O=C(c1cc(C(F)(F)F)cc(C(F)(F)F)c1)N1CCC2(CCN(Cc3nccs3)CC2)CC1
Result: 1.84

Task: Give me measured activity change, negative = inhibition, please, for this compound: c1nc(NC2CCNCC2)c2cc(-c3ccc4c(c3)OCO4)ccc2n1
Result: 6.44

Task: Give me measured activity change, negative = inhibition, please, for this compound: CC(C)NC(=O)N1CC[C@@]2(CCCN(C(=O)c3csnn3)C2)C1
Result: -0.319
